All figures here come from paper PMC7822874.

# Tested on: Plasmodium falciparum Dd2 asexual blood stage parasites
# test-summary: microbe, parasite or virus in culture
# Set-up: species or system Plasmodium falciparum Dd2 in human erythrocytes; single determination (one 11-point concentration-response curve)
# measurement-setup: Plasmodium falciparum, DD2, Erythrocyte, 72 h; read-out: AC50
# label = T if AC50 < 8 µM else F

INPUT: Identify whether the compound `COc1ccc(-c2noc(-c3cccn3CC(=O)Nc3ccccc3F)n2)cc1F` records AC50 below 8 µM.
OUTPUT: T

INPUT: Identify whether the compound `O=C(Nc1nc2ccccc2n1Cc1ccccc1)c1ccc(COc2ccccc2[N+](=O)[O-])o1` records AC50 below 8 µM.
OUTPUT: F

INPUT: Identify whether the compound O=[S+]([O-])(c1ccccc1)N1CC(CNc2cccnc2)C2(CN(c3ccccc3)C2)C1 (stereo not shown) records AC50 below 8 µM.
OUTPUT: F

INPUT: Identify whether the compound `COc1cccc(CNCCSc2nnnn2C)c1OCc1ccc(Cl)cc1` records AC50 below 8 µM.
OUTPUT: T

INPUT: Identify whether the compound `O=C(Nc1ccc2c(N3CCCC3)ncnc2c1)c1ccc(Br)cc1` records AC50 below 8 µM.
OUTPUT: T

INPUT: Identify whether the compound `c1ccc(CCNc2nc(-c3ccccn3)cs2)cc1` records AC50 below 8 µM.
OUTPUT: T

INPUT: Identify whether the compound `O=C(Nc1ccc(F)cc1)N1CCOc2ccc(CN3CCc4ccccc4C3)cc2C1` records AC50 below 8 µM.
OUTPUT: F
